target: Androgen receptor (Homo sapiens, UniProt P10275); assay: Inhibition of AR transcriptional activity in human LNCaP cells harboring ARR2PB-eGFP incubated for 72 hrs by fluorescence assay; assay type: cell-based
Sequence (P10275 whole entry): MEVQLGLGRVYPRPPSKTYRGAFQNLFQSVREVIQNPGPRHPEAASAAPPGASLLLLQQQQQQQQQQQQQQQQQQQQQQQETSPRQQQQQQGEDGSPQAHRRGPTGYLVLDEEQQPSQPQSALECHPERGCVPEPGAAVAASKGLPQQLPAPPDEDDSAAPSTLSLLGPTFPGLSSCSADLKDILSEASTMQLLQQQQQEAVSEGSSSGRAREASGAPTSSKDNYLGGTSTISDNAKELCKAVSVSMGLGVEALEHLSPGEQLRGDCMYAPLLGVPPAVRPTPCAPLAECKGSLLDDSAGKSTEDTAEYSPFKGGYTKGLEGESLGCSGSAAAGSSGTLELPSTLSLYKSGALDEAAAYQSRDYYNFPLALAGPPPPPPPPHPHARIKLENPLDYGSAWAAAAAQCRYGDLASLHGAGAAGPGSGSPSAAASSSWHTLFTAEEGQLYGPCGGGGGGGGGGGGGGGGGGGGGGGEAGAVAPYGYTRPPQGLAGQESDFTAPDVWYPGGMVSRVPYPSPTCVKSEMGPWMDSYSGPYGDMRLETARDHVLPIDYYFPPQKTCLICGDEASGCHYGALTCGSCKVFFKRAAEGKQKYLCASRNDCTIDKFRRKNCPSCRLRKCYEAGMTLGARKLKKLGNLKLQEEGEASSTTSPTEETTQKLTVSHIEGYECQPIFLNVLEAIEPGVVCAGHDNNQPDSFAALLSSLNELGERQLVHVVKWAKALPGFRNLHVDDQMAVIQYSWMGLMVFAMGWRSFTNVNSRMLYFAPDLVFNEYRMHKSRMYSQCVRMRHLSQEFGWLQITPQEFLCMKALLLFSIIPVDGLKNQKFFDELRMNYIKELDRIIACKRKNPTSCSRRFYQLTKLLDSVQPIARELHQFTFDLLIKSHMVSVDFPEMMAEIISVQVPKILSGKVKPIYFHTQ
readout: log10(IC50) (log10 of the value in µM)
Reminder: these figures are log10 of reported IC50, in µM before transformation.

Check out these entries, answers already filled in.
1) O=c1cc(C(F)(F)F)c2ccc(OCc3ccc4c(c3)OCO4)cc2o1	0.97
2) O=c1cc(C(F)(F)F)c2ccc(OCc3ccc(C(F)(F)F)cc3)cc2o1	-0.05

Quick note, log10(IC50) for `COC(=O)c1ccc(COc2ccc3c(C(F)(F)F)cc(=O)oc3c2)cc1` landed at 1.49

Quick note, log10(IC50) for `O=c1cc(C(F)(F)F)c2ccc(OCc3ccncc3)cc2o1` landed at 0.28

Quick note, log10(IC50) for `O=c1cc(C(F)(F)F)c2ccc(OCc3ccc(F)cc3)cc2o1` landed at -0.33

Quick note, log10(IC50) for `O=c1cc(C(F)(F)F)c2ccc(OCc3ccc(OC(F)(F)F)cc3)cc2o1` landed at 1.40

====

Entries and their IC50 values follow.
target: Androgen receptor (Homo sapiens); assay: Inhibition of AR transcriptional activity in human LNCaP cells harboring ARR2PB-eGFP incubated for 72 hrs by fluorescence assay; format: cell-based

Check out these entries, answers already filled in.
1. O=c1cc(C(F)(F)F)c2ccc(OCc3cccc(Br)c3)cc2o1	2.28 µM
2. CCn1cc(C(=O)Nc2ccc3c(C(F)(F)F)cc(=O)oc3c2)c(C)n1	> 50 µM
3. O=C(Nc1ccc2c(C(F)(F)F)cc(=O)oc2c1)c1nc2ncccn2n1	> 50 µM
4. O=C(Nc1ccc2c(C(F)(F)F)cc(=O)oc2c1)c1cccc(Cl)c1	> 50 µM
5. CC(=O)c1ccc(COc2ccc3c(C(F)(F)F)cc(=O)oc3c2)cc1	> 50 µM
6. Oc1ccccc1/C=N/c1ccc2oc(-c3ccccc3)nc2c1	> 50 µM
7. O=C(Oc1ccc2c(C(F)(F)F)cc(=O)oc2c1)C1CCCCC1	> 50 µM
8. O=c1cc(C(F)(F)F)c2ccc(OCc3cc4c(cc3Cl)OCO4)cc2o1	1.47 µM
9. Cc1ccc(COc2ccc3c(C(F)(F)F)cc(=O)oc3c2)cc1	0.61 µM
10. N#Cc1cccc(/N=C/c2ccccc2O)c1	> 50 µM

Let us examine a further case.
Quick note, IC50 for `Cc1ccc(OC(=O)Nc2ccc3c(C(F)(F)F)cc(=O)oc3c2)c(C)c1` landed at > 50 µM

====

molecular target: UniProt:P10275; test: Inhibition of AR transcriptional activity in human LNCaP cells harboring ARR2PB-eGFP assessed as decrease in PSA level; format: cell-based, LN-18
readout: IC50 (µM)
Hi! Could you send only the number? It should be in µM, unit omitted.

Quick note, IC50 for `O=c1cc(C(F)(F)F)c2ccc(/N=C/c3ccccc3O)cc2o1` landed at 3.71

====

Entries and their pIC50 values follow.
target: Androgen receptor (Homo sapiens); assay: Inhibition of AR transcriptional activity in human LNCaP cells harboring ARR2PB-eGFP incubated for 72 hrs by fluorescence assay; format: cell-based
pIC50: −log10 of the molar value.

1. O=c1cc(C(F)(F)F)c2ccc(OCc3ccccc3Br)cc2o1	6.03
2. Cc1cccc(COc2ccc3c(C(F)(F)F)cc(=O)oc3c2)c1	5.85
3. O=c1cc(C(F)(F)F)c2ccc(OCc3ccc([N+](=O)[O-])cc3)cc2o1	< 4.30
4. O=c1cc(C(F)(F)F)c2ccc(OCc3cccnc3)cc2o1	< 4.30
5. COc1ccc([N+](=O)[O-])cc1COc1ccc2c(C(F)(F)F)cc(=O)oc2c1	< 4.30

The recorded pIC50 with Androgen receptor (Homo sapiens) for `O=c1cc(C(F)(F)F)c2ccc(OCc3ccccn3)cc2o1` was < 4.30
